These measurements were taken from PubChem BioAssay AID1851.

test-target: Cytochrome P450 3A4 (Homo sapiens) (UniProt P08684)
Sequence (P08684 whole entry, looked up): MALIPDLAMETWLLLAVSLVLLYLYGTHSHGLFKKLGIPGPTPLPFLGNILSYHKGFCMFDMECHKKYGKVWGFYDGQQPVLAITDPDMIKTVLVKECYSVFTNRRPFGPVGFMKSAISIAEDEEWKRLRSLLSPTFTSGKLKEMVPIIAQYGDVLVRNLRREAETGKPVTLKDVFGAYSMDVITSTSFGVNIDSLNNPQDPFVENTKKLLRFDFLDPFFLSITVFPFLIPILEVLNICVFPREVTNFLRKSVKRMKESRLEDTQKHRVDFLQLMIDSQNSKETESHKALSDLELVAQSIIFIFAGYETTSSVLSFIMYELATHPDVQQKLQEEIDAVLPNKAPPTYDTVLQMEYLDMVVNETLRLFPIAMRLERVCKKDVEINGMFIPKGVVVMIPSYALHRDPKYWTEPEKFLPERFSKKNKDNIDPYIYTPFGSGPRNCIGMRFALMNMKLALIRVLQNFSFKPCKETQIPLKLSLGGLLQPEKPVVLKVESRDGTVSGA
procedure-summary: Cytochrome panel assay with activity outcomes
protocol-conditions: recombinant CYP, pro-luciferin dealkylation, luminescence, p450-cyp3a4; series mostly up to 57.1 µM
Hit rate of the full screen: of about 16,000 compounds, about 5,100 (32%) were called active. About 25% were inconclusive and are not listed. This is one part of the list.
recorded-endpoint: AC50

smiles_str=COc1ccc(Oc2ncc3ncc(=O)n(CCc4ccccc4)c3n2)cc1 result="1.26 µM (active)"
smiles_str=Cc1ccc(-c2cc(C(=O)NCc3ccco3)c3ccccc3n2)s1 result="10 µM (active)"
smiles_str=CCO[C@H](c1cc(OC)cc([N+](=O)[O-])c1OC)[C@H](C)/C=C\CC(=O)OC result="3.98 µM (active)"
smiles_str=O=c1c(-c2ccccc2)c(O)c2cccc3c2n1CCC3 result=inactive
smiles_str=O=[N+]([O-])c1cccc2cn[nH]c12 result=inactive
smiles_str=Cc1ccccc1-c1cc(C(=O)Nc2nc3c(s2)CCCC3)c2ccccc2n1 result="3.16 µM (active)"
smiles_str=Brc1[nH]nc2ccccc12 result=inactive
smiles_str=Cc1ccc(Nc2ncccc2C(=O)NCc2cccs2)c(C)c1 result="12.6 µM (active)"
smiles_str=COc1ccccc1CNc1ncncc1-c1ccc2c(c1)OCO2 result="0.2 µM (active)"
smiles_str=O=[N+]([O-])c1cccc2c(Br)[nH]nc12 result="12.6 µM (active)"
smiles_str=COc1ncc2nc(CCc3ccccc3)c(=O)n(C)c2n1 result=inactive
smiles_str=Cc1ccc(C)c(-c2cc(C(=O)NCc3cccs3)c3ccccc3n2)c1 result="1.41 µM (active)"

###

test-target: Cytochrome P450 3A4 (Homo sapiens) (UniProt P08684)
procedure-summary: Cytochrome panel assay with activity outcomes
protocol-conditions: recombinant CYP, pro-luciferin dealkylation, luminescence, p450-cyp3a4; series mostly up to 57.1 µM
In all, about 16,000 compounds went through this assay and about 5,100 (32%) were called active. Inconclusive results (about 25%) are left out. Calls follow the shape of the dose curve; as a rule, active = well fitted curve in the direction sought with a large enough effect; inconclusive = small, poorly fitted or top-dose-only effect, or effect the other way; inactive = no such curve, though single readings can be large or run the other way. This is one part of the list.
Outcome codes: active, inactive

smiles_str=CCOc1ccccc1NC(=O)CN1CCC(NC(=O)c2ccccc2)CC1 test_target="Cytochrome P450 3A4 (Homo sapiens) (UniProt P08684)" assigned_class=inactive
smiles_str=CCc1ccc(CSc2nccn2-c2ccccc2)cc1 test_target="Cytochrome P450 3A4 (Homo sapiens) (UniProt P08684)" assigned_class=active
smiles_str=COC(=O)[C@@]1(Cc2ccc(F)cc2)[C@H]2c3cc(C(=O)N4CCCC4)n(CCN4CNCC4=O)c3C[C@H]2CN1C(=O)c1ccccc1 test_target="Cytochrome P450 3A4 (Homo sapiens) (UniProt P08684)" assigned_class=active
smiles_str=CCCc1cc(C(=O)Cc2nc3ccccc3s2)c(O)cc1O test_target="Cytochrome P450 3A4 (Homo sapiens) (UniProt P08684)" assigned_class=active
smiles_str=c1ccc(CCSc2nccn2-c2ccccc2)cc1 test_target="Cytochrome P450 3A4 (Homo sapiens) (UniProt P08684)" assigned_class=active
smiles_str=O=C(CSc1nccn1-c1ccccc1)c1ccc(Cl)cc1 test_target="Cytochrome P450 3A4 (Homo sapiens) (UniProt P08684)" assigned_class=active
smiles_str=COC(=O)[C@@]1(Cc2ccc(F)cc2)[C@H]2c3cc(C(=O)N(C)C)n(CCCNc4ccc(C(F)(F)F)cc4Cl)c3C[C@H]2CN1C(=O)c1ccccc1 test_target="Cytochrome P450 3A4 (Homo sapiens) (UniProt P08684)" assigned_class=active
smiles_str=CC(C)N=c1scc(-c2ccco2)n1/N=C/c1ccc(O)c(O)c1 test_target="Cytochrome P450 3A4 (Homo sapiens) (UniProt P08684)" assigned_class=active
smiles_str=Cc1cc(OC(=O)c2ccc(Cl)cc2Cl)nc(C)n1 test_target="Cytochrome P450 3A4 (Homo sapiens) (UniProt P08684)" assigned_class=inactive
smiles_str=O=C(NNc1nc2ccccc2s1)C1CC1 test_target="Cytochrome P450 3A4 (Homo sapiens) (UniProt P08684)" assigned_class=inactive
